B1: KIAA1161 (parent)
chain: FMPAMQFSIPPWRYDAEVVAIAQK

Variants of: B1
methodNotes: protein stability index of a GFP-peptide fusion (GPS, HEK-293T) (PSI 1-6); higher = more stable;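 also: lentivirally expressed fusions sorted by FACS into six bins by GFP to DsRed ratio, PSI derived from sequencing read proportions per bin multiplied by bin number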
particulars: c terminus: a fixed tail appended
observedProperty: protein stability index
Please state the value as a number alone, without comment.

Observe how each entry below is paired with its result.
P11I; 1.59
V19H; 1.56
Y14P; 1.79
F1A; 2.3

### Prompt Check the records and state protein stability index for K24F
### Response 2

### Prompt Check the records and state protein stability index for A22F
### Response 2.18

### Prompt Check the records and state protein stability index for I21P
### Response 2.16

### Prompt Check the records and state protein stability index for Q6S
### Response 1.83

### Prompt Check the records and state protein stability index for V18D
### Response 2.36

### Prompt Check the records and state protein stability index for F7Y
### Response 1.7

### Prompt Check the records and state protein stability index for A20T
### Response 1.92
